// provenance: ChEMBL document CHEMBL1201862

Item-by-item account of GI50
Tested on: MOLT-4
Test Name: NCI tumour cell line growth inhibition, 48 h
Activity calls are given as the source filed them. Rule as the data show it: active = GI50 up to about 1.1 µM and inactive = higher.
Assay Readout: GI50

Structure Smiles String | Measured On | Assay Readout | Measured Result
CC(=O)c1c(P(=O)(OC(C)C)OC(C)C)nn(-c2ccc([N+](=O)[O-])cc2)c1C | MOLT-4 | GI50 | > 100 µM (inactive)
O=C1C(Cl)=C(NCCO)C(=O)c2c(O)ccc(O)c21 | MOLT-4 | GI50 | 3.33 µM (inactive)
CCCn1c(SCC)c2cc3cc4ccccc4cc3cc2c1-c1nc(F)nc(F)n1 | MOLT-4 | GI50 | > 100 µM (inactive)
O=C1c2cccc3cc4ccccc4c(c23)C(=O)N1CCNCCNCCNCCN1C(=O)c2cccc3cc4ccccc4c(c23)C1=O | MOLT-4 | GI50 | < 0.01 µM (active)
COc1cc(/C=C(\C#N)C(=O)c2ccccc2)ccc1OCc1ccccc1 | MOLT-4 | GI50 | > 100 µM (inactive)

* * *

Tested on: NCI/ADR-RES
Test Name: NCI tumour cell line growth inhibition, 48 h
Counter-ions that a name gives are not always drawn. Activity calls are given as the source filed them. No stated cut-off is given here; in the data, active = GI50 up to about 1.1 µM and inactive = higher.
Outcome codes: label 1 (active), label 0 (inactive)

Compound | Cat
CCOP1(=O)CC(C)=C(Cl)C(O)C1 (stereo not given) | label 0
OCC1OC(n2cnc3c(SCc4ccccc4)ncnc32)C(O)C1O (stereo not given) | label 0
CC(C(=O)c1ccccc1)C(c1ccccc1)N1CCOCC1 (stereo not given) | label 0
O=c1[nH]c(=O)n(COCCO)c2ccsc12 | label 0
COc1cc(S(=O)(=O)Nc2nc(-c3ccc(/N=C/c4cccs4)cc3)cs2)ccc1Cl | label 0
COc1ccc2c(c1O)-c1cc(O)cc3c1[C@@H](C2)N(C)CC3 | label 0
CCCCNc1c(CN)cnc2cc(Cl)ccc12 | label 0
O=C(O)CNC(=O)CO/N=C1/C(=C2/C(=O)Nc3ccccc32)Nc2ccccc21 | label 0
Cc1ccc2[nH]c3[nH]c(=O)[nH]c(=O)c3c2c1 | label 0
COc1c(-c2nc3ccc(N4CCN(C)CC4)cc3[nH]2)cc(OC)c2[nH]c(CO)nc12 | label 0
OC1[C@@H]2[C@@H](O)CCCN2C[C@@H](O)[C@H]1O (stereo not given in full) | label 0
COCC(/N=C\N1CCCc2ccccc2[C@@H]1CCCCl)C(C)(C)C (stereo not given in full) | label 1
c1csc(-c2cscc2-c2ccsc2)c1 | label 0
C[C@]12CC[C@@H]3c4ccc(OCCN5CCCC5)cc4CC[C@H]3[C@@H]1CCC2=O | label 0
CC(=O)OC/C=C/Cn1ncc(=O)[nH]c1=O | label 0
C=C(CN(C)C)C(=O)c1ccccc1 | label 0
COc1ccc(Nc2nc3cc(C(F)(F)F)ccc3nc2C(=O)O)cc1 | label 0
C=CCN(c1cc(OCc2ccccc2)c2[nH]cc(C)c2c1)S(C)(=O)=O | label 0
O=C(c1ccccc1)N1CCC(CC2(c3cc4ccccc4[nH]3)OCCO2)CC1 | label 0
COc1ccc2nc3cc(Cl)ccc3c(NCCCNCCCNc3c4ccc(Cl)cc4nc4ccc(OC)cc34)c2c1 | label 1
COc1cc(O)c2c(=O)c3ccccc3n(C)c2c1 | label 0
CC(C)(C)C(=O)CC(=O)C(F)(F)C(F)(F)C(F)(F)F | label 0
CC(=O)c1nc2ccccc2n1CC(=O)c1ccc(Cl)cc1 | label 0
C[C@@H]1S[C@H](c2c(F)cccc2Cl)n2c1nc1ccccc12 | label 0
CC(=O)N1CCc2c([nH]c3ccc(Br)cc23)C1c1ccccc1 (stereo not given) | label 0
Cc1nn(C(=O)c2ccc(Cl)cc2)c2c1C(c1ccccc1)SC(=N)N2 (stereo not given) | label 0
CC[C@@H]1C(=O)OC[C@@H]1Cc1cncn1C [PILOCARPINE HYDROCHLORIDE] | label 0
Cc1sc2nc3n(c(=O)c2c1C)N=C(c1ccc([N+](=O)[O-])cc1)CS3 | label 0
CC(=O)NC1CCC(NC(=O)OC(C)(C)C)C(NC(=O)OC(C)(C)C)C1 (stereo not given) | label 0
CC(C)CC(NC(O)[BH2-][N+](C)(C)C)C(=O)NC(Cc1ccccc1)C(=O)N[C@H]1c2ccsc2/C(=N/O)[C@H]1O (stereo not given in full) | label 0
CC1(C)OP(=O)(c2ccccc2)C=C1Sc1ccc([N+](=O)[O-])cc1[N+](=O)[O-] (stereo not given) | label 0
CC(=O)SCCC(NC(=S)Nc1ccccc1)P(=O)(Oc1ccccc1)Oc1ccccc1 (stereo not given) | label 0
CCOC(=O)Nc1nc2cc(Cn3cccc3)ccc2[nH]1 | label 1
CCCc1cn2c(/C=N/NC(=N)N)c(-c3cccc([N+](=O)[O-])c3)nc2s1 | label 0
O=C1c2cccc3cc4ccccc4c(c23)C(=O)N1CCNCCNCCNCCN1C(=O)c2cccc3cc4ccccc4c(c23)C1=O | label 1
